Reference for the values: ChEMBL document CHEMBL1201862

# Test system: SK-MEL-28
# Test name: NCI tumour cell line growth inhibition, 48 h
Active and inactive are the calls of the source. Rule as the data show it: active = GI50 up to about 1.1 µM and inactive = higher. Starred links: 1 amine or outer side, 2 acyl side, 3 side chain; linkers in the order of their positions; H or OH if unused. Positions of bridges follow the written chain, without caps; N, C: chain ends. Non-standard residues stand in square brackets, D forms with d. Residues, ends and D or L forms follow the SMILES beside them. Chains are numbered I, II in the order given. Actinocin(1to9) = Cc1c2oc3c(C)ccc(C(=O)[*:2])c3nc-2c(C(=O)[*:1])c(N)c1=O; NMeV = CN[CH](C(=O)O)C(C)C; Sar = CNCC(=O)O
One label from this list, please: active, inactive

Worked cases, answers included:
[
  {
    "Molecule": "COC1=C(OC)C(=O)c2cc(C)c(=O)c(C)cc2C1=O",
    "Answer label": "inactive"
  },
  {
    "Molecule": "CC(=O)OCC1OC(c2c(OC(C)=O)cc(C)c3c(=O)cc(/C(C(C)=O)=C(\\C)O)oc23)C(OC(C)=O)C(OC(C)=O)C1OC(C)=O (centres undefined)",
    "Answer label": "inactive"
  },
  {
    "Molecule": "Cc1nc2nn(C)cc2c(=O)n1/N=C/c1ccccc1",
    "Answer label": "inactive"
  },
  {
    "Molecule": "c1ccc(/N=c2\\snc3scc(-c4ccccc4)n23)cc1",
    "Answer label": "inactive"
  },
  {
    "Molecule": "O1C2C1C1OC1C1OC1C1OC21 (centres undefined)",
    "Answer label": "inactive"
  }
]

State the result this test recorded for "Cc1cc2c(ccc3c(C)cc(=O)oc32)o1" .
inactive

State the result this test recorded for "O=C1c2ccccc2C(=O)c2c(O)c(O)cc(O)c21" .
inactive

State the result this test recorded for C[C@]12CCC3[C@@H](CC[C@@H]4c5nonc5CC[C@]34C)C1C/C(=N/O)C2=O (some centres undefined) .
inactive

State the result this test recorded for CO/N=C1\CCC2(O)C3Cc4ccc(O)c5c4C2(CCN3CC2CC2)[C@H]1O5 (some centres undefined) .
inactive

State the result this test recorded for COC(=O)C1CC(C=O)=C(SC)N1 (centres undefined) .
inactive

State the result this test recorded for "COc1c(Cl)c(=O)oc2ccc(Cl)cc12" .
inactive

State the result this test recorded for COc1cc(C2c3cc4c(cc3[C@@H](Nc3ccc(C(=O)O)cc3)C3COC(=O)[C@H]23)OCO4)cc(OC)c1O (some centres undefined) .
inactive

State the result this test recorded for "O=C1C=CC(=O)c2c1ccc1c3ccccc3n(-c3ccccn3)c21" .
inactive

State the result this test recorded for "CC1(C)CN=C(Nc2cccc(C(F)(F)F)c2)S1" .
inactive

State the result this test recorded for "Nc1ncc(Br)c(NCC2(CO)CCC2)n1" .
inactive

State the result this test recorded for "O=c1n(-c2ccccc2)c(=O)n2c(-c3ccccc3)c(-c3ccccc3)n12" .
inactive

State the result this test recorded for "O=C(O)CCC/N=C(\C(=N\CCCC(=O)O)c1ccccc1)c1ccccc1" .
inactive

State the result this test recorded for "[N-]=[N+]=NC1=C(c2ccccn2)C(=O)c2cccc3cccc1c23" .
inactive

State the result this test recorded for CCC(C)C1NC(=O)C(NC(=O)c2c3nc4c(C(=O)NC5C(=O)NC(C(C)CC)C(=O)N6CCCC6C(=O)N(C)CC(=O)N(C)C(C(C)C)C(=O)OC5C)ccc(C)c4oc-3c(C)c(=O)c2N)C(C)OC(=O)C(C(C)C)N(C)C(=O)CN(C)C(=O)C2CCCN2C1=O (centres undefined) (I: TIP[Sar][NMeV] / II: TIP[Sar][NMeV]; ester I:1-I:C, II:1-II:C; linker I:N-II:N via Actinocin(1to9); configuration not given here) .
active

----------
# System: DU-145
# Test name: NCI tumour cell line growth inhibition, 48 h
Active and inactive are the calls of the source. Cut-off read from the data, not from the text of the source: active = GI50 up to about 1.1 µM and inactive = higher.
One label from this list, please: active, inactive

[
  {
    "Compound": "CCOP(=O)(C[S+](C)[O-])O[C@@H]1C[C@H](C)CC[C@H]1C(C)C (stereo partly specified)",
    "Tested on": "DU-145",
    "Answer label": "inactive"
  }
]

State the result this test recorded for "Cc1[nH]nc(C(=O)N/N=C/c2cccs2)c1/N=N\N(C)C" .
inactive

State the result this test recorded for "CC1(CCC(=O)OC2CCCCC2)OCCO1" .
inactive

----------
GI50 values for the compounds below.
# Test system: UACC-257
# Test name: NCI tumour cell line growth inhibition, 48 h
Activity calls are given as the source filed them. Cut-off read from the data, not from the text of the source: active = GI50 up to about 1.1 µM and inactive = higher.

Please review the entries below; each comes with its answer.
[
  {
    "Compound": "O=C(Nc1ccccc1-c1nc2ccccc2[nH]c1=O)c1ccccc1",
    "GI50": "44 µM (inactive)"
  },
  {
    "Compound": "C=C(C)CNCCN",
    "GI50": "> 100 µM (inactive)"
  },
  {
    "Compound": "CNC(=O)N(CCC#N)CCCN(C(=O)NC)c1ccccc1",
    "GI50": "> 100 µM (inactive)"
  }
]

GI50 for COC(=O)C1=C(C)NC(CF)=C(C(=O)OC)C1c1cccc2c(=O)c3ccccc3oc12 (stereo unspecified) ?
16.5 µM (inactive)

GI50 for COC(=O)C1=C(O)C(C(=O)OC)[C@]2(O)[C@H](C(=O)OC)[C@H]1C[C@@H](c1ccccc1OC)[C@H]2C(=O)OC (stereo partly specified) ?
9.64 µM (inactive)

GI50 for "[N-]=[N+]=NC1=C(c2ccccn2)C(=O)c2cccc3cccc1c23" ?
32.8 µM (inactive)

----------
# Tested on: SNB-75
# Test name: NCI tumour cell line growth inhibition, 48 h
Activity calls are given as the source filed them. Cut-off read from the data, not from the text of the source: active = GI50 up to about 1.1 µM and inactive = higher.
Observed property: GI50

Please review the entries below; each comes with its answer.
[
  {
    "Molecule": "O=[N+]([O-])c1ccccc1OCCOc1ccccc1[N+](=O)[O-]",
    "Observed property": "GI50",
    "Assay result": "> 100 µM (inactive)"
  },
  {
    "Molecule": "COC(=O)C1=C(C(=O)OC)C2(C(=O)OC)OC1(OC)C(C1(C(=O)OC)C(C(=O)OC)=C1C(=O)OC)=C2C(=O)OC (stereo not given)",
    "Observed property": "GI50",
    "Assay result": "> 100 µM (inactive)"
  },
  {
    "Molecule": "COC1CC(OC2C(C)OC(OC3C(C)OC(OC4C(C)OC(O[C@H]5CC[C@@]6(C)C(=CC[C@]7(O)[C@@H]6C[C@@H](OC(=O)/C=C/c6ccccc6)[C@@]6(C)[C@]7(O)CC[C@@]6(O)C(C)=O)C5)CC4OC)CC3OC)CC2OC)OC(C)C1O (stereo not given in full)",
    "Observed property": "GI50",
    "Assay result": "> 12.5 µM (inactive)"
  }
]

GI50 for "[N-]=[N+]=NC1=C(c2ccccn2)C(=O)c2cccc3cccc1c23" ?
29 µM (inactive)

GI50 for "S=C1SCN(Cc2ccco2)CN1c1ccc(Br)cc1" ?
37.8 µM (inactive)

----------
# Tested on: HOP-92
# Test name: NCI tumour cell line growth inhibition, 48 h
Active and inactive are the calls of the source. Rule as the data show it: active = GI50 up to about 1.1 µM and inactive = higher.
Observed property: GI50

Request - read-out GI50 | tested on HOP-92 | compound COC(=O)C1=C(O)C(C(=O)OC)[C@]2(O)[C@H](C(=O)OC)[C@H]1C[C@@H](c1ccccc1OC)[C@H]2C(=O)OC (stereo not given in full)
2.34 µM (inactive)

----------
# System: HOP-62
# Test name: NCI tumour cell line growth inhibition, 48 h
Activity calls are given as the source filed them. Cut-off read from the data, not from the text of the source: active = GI50 up to about 1.1 µM and inactive = higher.
Observed property: GI50

[
  {
    "Smiles str": "COC(=O)CCC(=O)CC(=O)C(=O)Nc1ccc(F)cc1",
    "Tested on": "HOP-62",
    "Assay result": "> 100 µM (inactive)"
  },
  {
    "Smiles str": "CCc1ccccc1NNc1cc(=O)[nH]c(=O)[nH]1",
    "Tested on": "HOP-62",
    "Assay result": "19.3 µM (inactive)"
  },
  {
    "Smiles str": "Cc1ccc(CSC(=N)Nc2ccccc2)cc1C",
    "Tested on": "HOP-62",
    "Assay result": "23.7 µM (inactive)"
  },
  {
    "Smiles str": "C/C(CC(=O)Nc1cc(Cl)c(Cl)cc1Cl)=N\\NS(=O)(=O)c1ccc(C)cc1",
    "Tested on": "HOP-62",
    "Assay result": "31.8 µM (inactive)"
  },
  {
    "Smiles str": "NS(=O)(=O)c1nnc(NC(=O)N(c2ccccc2)c2ccccc2)s1",
    "Tested on": "HOP-62",
    "Assay result": "27.2 µM (inactive)"
  }
]

As a next step, examine the compound that follows.
GI50 for "COc1ccc(OC)c2c1CC(C(=O)O)(C(=O)O)CC2=O" ?
> 100 µM (inactive)
